Below are IC50 values recorded for p300 HAT domain (residues 1287-1666) (Homo sapiens (Human), UniProt Q09472).
Readout Label: IC50 (nM)

[[record]]
molecule = "Cc1cc(C#N)ccc1CCNC(C(=O)Nc1ccc(-c2cnn(C)c2)cn1)c1ccccc1 (single isomer, unassigned) [41 Isomer 2]"
measured_on = "p300 HAT domain (residues 1287-1666) (Homo sapiens (Human), UniProt Q09472)"
reported_relation = "="
observed_value = 1790

[[record]]
molecule = "CS(=O)(=O)N1CCN(c2ccc(NC(=O)C(NCCc3ccc(C#N)cc3)c3ccccc3)nc2)CC1 (single isomer, unassigned) [68 Isomer 2]"
measured_on = "p300 HAT domain (residues 1287-1666) (Homo sapiens (Human), UniProt Q09472)"
reported_relation = "="
observed_value = 70

[[record]]
molecule = "CC1C(=O)N(C)CCN1c1ccc(NC(=O)C(NC[C@@H](C)c2ccc(C#N)cc2)c2ccccc2)nc1 (single isomer, unassigned) [126 Isomer 3]"
measured_on = "p300 HAT domain (residues 1287-1666) (Homo sapiens (Human), UniProt Q09472)"
reported_relation = ">"
observed_value = 2000

[[record]]
molecule = "CCN(CC)C(=O)C1CCN(c2ccc(NC(=O)C(NCCc3ccc(C#N)cc3)c3ccccc3)nc2)CC1 (single isomer, unassigned) [64 Isomer 2]"
measured_on = "p300 HAT domain (residues 1287-1666) (Homo sapiens (Human), UniProt Q09472)"
reported_relation = "="
observed_value = 568

[[record]]
molecule = "Cc1c(-c2ccc(NC(=O)C(NC[C@@H](C)c3ccc(C#N)cc3)c3ccccc3)nc2)cnn1C (single isomer, unassigned) [114 Isomer 1]"
measured_on = "p300 HAT domain (residues 1287-1666) (Homo sapiens (Human), UniProt Q09472)"
reported_relation = "="
observed_value = 528

[[record]]
molecule = "CC(CNC(C(=O)Nc1ccc(N2CCN(CC(F)(F)F)C(=O)C2)cn1)c1ccccc1)c1ccc(C#N)cc1 (single isomer, unassigned) [103 Isomer 1]"
measured_on = "p300 HAT domain (residues 1287-1666) (Homo sapiens (Human), UniProt Q09472)"
reported_relation = ">"
observed_value = 2000

[[record]]
molecule = "N#Cc1ccc(CCNC(C(=O)Nc2ccc(-c3ccccc3)cn2)c2ccccc2)cc1 (single isomer, unassigned) [34 Isomer 1]"
measured_on = "p300 HAT domain (residues 1287-1666) (Homo sapiens (Human), UniProt Q09472)"
reported_relation = ">"
observed_value = 5000

[[record]]
molecule = "C[C@H](CNC(C(=O)Nc1ccc(N2CCN(C)C(=O)C2)cn1)c1cccc(F)c1)c1ccc(C#N)cc1 (single isomer, unassigned) [137 Isomer 1]"
measured_on = "p300 HAT domain (residues 1287-1666) (Homo sapiens (Human), UniProt Q09472)"
reported_relation = "="
observed_value = 783

[[record]]
molecule = "O=C(Nc1ccc(-c2cccnn2)cc1)C(NCCc1ccc(Cl)cc1)c1ccccc1 (single isomer, unassigned) [10 Isomer 2]"
measured_on = "p300 HAT domain (residues 1287-1666) (Homo sapiens (Human), UniProt Q09472)"
reported_relation = "="
observed_value = 580

[[record]]
molecule = "CC(CNC(C(=O)Nc1ccc(-n2cnc(C(C)(C)C)c2)cn1)c1ccccc1)c1ccc(C#N)cc1 (single isomer, unassigned) [59 Isomer 3]"
measured_on = "p300 HAT domain (residues 1287-1666) (Homo sapiens (Human), UniProt Q09472)"
reported_relation = ">"
observed_value = 2000

[[record]]
molecule = "Cc1ccc(CCNC(C(=O)Nc2ccc(-c3cnn(C)c3)cn2)c2ccccc2)cc1 (single isomer, unassigned) [48 Isomer 2]"
measured_on = "p300 HAT domain (residues 1287-1666) (Homo sapiens (Human), UniProt Q09472)"
reported_relation = "="
observed_value = 1560

[[record]]
molecule = "CC(CNC(C(=O)Nc1ccc(-n2cnc(C(C)(C)C)c2)cn1)c1ccccc1)c1ccc(C#N)cc1 (single isomer, unassigned) [59 Isomer 4]"
measured_on = "p300 HAT domain (residues 1287-1666) (Homo sapiens (Human), UniProt Q09472)"
reported_relation = "="
observed_value = 39.3


----------
pIC50: −log10 of the molar value.
Quick record: pIC50, p300 HAT domain (residues 1287-1666) (Homo sapiens (Human), UniProt Q09472).
Readout Label: pIC50

[[record]]
molecule = "Cn1ccc(-c2ccc(NC(=O)C(NCCc3ccc(C#N)cc3)c3ccccc3)nc2)n1 (single isomer, unassigned) [14 Isomer 2]"
observed_value = 6.72

[[record]]
molecule = "COC1CN(c2ccc(NC(=O)C(NCC(C)c3ccc(C#N)cc3)c3ccccc3)nc2)C1 (single isomer, unassigned) [32 Isomer 3]"
observed_value = "< 5.70"

[[record]]
molecule = "C[C@H](CNC(C(=O)Nc1ccc(-c2cnn(C)c(=O)c2)cn1)c1ccccc1)c1ccc(C#N)cc1 (single isomer, unassigned) [139 Isomer 2]"
observed_value = "< 5.70"


----------
Let's go through some recorded pIC50 values for p300 HAT domain (residues 1287-1666) (Homo sapiens (Human), UniProt Q09472) together.
pIC50: −log10 of the molar value.
Readout Label: pIC50

[[record]]
compound = "C[C@H](CNC(C(=O)Nc1ccc(C2CC(=O)N(C)C2)cn1)c1ccccc1)c1ccc(C#N)cc1 (single isomer, unassigned) [109 Isomer 3]"
measured_on = "p300 HAT domain (residues 1287-1666) (Homo sapiens (Human), UniProt Q09472)"
reported_relation = "="
observed_value = 7.21

[[record]]
compound = "Cn1cc(-c2cnc(NC(=O)C(NCCc3ccc(C#N)cc3)c3ccccc3)c(F)c2)cn1 (single isomer, unassigned) [75 Isomer 2]"
measured_on = "p300 HAT domain (residues 1287-1666) (Homo sapiens (Human), UniProt Q09472)"
reported_relation = "<"
observed_value = 5.70

[[record]]
compound = "CC(CNC(C(=O)Nc1ccc(N2CCN(C)C(=O)C2)cn1)c1ccccc1)c1ccc(C#N)cc1 (single isomer, unassigned) [101 Isomer 3]"
measured_on = "p300 HAT domain (residues 1287-1666) (Homo sapiens (Human), UniProt Q09472)"
reported_relation = "="
observed_value = 6.45


----------
The entries below are paired with their reported IC50.
Measured On: full length p300 (Homo sapiens (Human))
Sequence (Q09472 whole entry): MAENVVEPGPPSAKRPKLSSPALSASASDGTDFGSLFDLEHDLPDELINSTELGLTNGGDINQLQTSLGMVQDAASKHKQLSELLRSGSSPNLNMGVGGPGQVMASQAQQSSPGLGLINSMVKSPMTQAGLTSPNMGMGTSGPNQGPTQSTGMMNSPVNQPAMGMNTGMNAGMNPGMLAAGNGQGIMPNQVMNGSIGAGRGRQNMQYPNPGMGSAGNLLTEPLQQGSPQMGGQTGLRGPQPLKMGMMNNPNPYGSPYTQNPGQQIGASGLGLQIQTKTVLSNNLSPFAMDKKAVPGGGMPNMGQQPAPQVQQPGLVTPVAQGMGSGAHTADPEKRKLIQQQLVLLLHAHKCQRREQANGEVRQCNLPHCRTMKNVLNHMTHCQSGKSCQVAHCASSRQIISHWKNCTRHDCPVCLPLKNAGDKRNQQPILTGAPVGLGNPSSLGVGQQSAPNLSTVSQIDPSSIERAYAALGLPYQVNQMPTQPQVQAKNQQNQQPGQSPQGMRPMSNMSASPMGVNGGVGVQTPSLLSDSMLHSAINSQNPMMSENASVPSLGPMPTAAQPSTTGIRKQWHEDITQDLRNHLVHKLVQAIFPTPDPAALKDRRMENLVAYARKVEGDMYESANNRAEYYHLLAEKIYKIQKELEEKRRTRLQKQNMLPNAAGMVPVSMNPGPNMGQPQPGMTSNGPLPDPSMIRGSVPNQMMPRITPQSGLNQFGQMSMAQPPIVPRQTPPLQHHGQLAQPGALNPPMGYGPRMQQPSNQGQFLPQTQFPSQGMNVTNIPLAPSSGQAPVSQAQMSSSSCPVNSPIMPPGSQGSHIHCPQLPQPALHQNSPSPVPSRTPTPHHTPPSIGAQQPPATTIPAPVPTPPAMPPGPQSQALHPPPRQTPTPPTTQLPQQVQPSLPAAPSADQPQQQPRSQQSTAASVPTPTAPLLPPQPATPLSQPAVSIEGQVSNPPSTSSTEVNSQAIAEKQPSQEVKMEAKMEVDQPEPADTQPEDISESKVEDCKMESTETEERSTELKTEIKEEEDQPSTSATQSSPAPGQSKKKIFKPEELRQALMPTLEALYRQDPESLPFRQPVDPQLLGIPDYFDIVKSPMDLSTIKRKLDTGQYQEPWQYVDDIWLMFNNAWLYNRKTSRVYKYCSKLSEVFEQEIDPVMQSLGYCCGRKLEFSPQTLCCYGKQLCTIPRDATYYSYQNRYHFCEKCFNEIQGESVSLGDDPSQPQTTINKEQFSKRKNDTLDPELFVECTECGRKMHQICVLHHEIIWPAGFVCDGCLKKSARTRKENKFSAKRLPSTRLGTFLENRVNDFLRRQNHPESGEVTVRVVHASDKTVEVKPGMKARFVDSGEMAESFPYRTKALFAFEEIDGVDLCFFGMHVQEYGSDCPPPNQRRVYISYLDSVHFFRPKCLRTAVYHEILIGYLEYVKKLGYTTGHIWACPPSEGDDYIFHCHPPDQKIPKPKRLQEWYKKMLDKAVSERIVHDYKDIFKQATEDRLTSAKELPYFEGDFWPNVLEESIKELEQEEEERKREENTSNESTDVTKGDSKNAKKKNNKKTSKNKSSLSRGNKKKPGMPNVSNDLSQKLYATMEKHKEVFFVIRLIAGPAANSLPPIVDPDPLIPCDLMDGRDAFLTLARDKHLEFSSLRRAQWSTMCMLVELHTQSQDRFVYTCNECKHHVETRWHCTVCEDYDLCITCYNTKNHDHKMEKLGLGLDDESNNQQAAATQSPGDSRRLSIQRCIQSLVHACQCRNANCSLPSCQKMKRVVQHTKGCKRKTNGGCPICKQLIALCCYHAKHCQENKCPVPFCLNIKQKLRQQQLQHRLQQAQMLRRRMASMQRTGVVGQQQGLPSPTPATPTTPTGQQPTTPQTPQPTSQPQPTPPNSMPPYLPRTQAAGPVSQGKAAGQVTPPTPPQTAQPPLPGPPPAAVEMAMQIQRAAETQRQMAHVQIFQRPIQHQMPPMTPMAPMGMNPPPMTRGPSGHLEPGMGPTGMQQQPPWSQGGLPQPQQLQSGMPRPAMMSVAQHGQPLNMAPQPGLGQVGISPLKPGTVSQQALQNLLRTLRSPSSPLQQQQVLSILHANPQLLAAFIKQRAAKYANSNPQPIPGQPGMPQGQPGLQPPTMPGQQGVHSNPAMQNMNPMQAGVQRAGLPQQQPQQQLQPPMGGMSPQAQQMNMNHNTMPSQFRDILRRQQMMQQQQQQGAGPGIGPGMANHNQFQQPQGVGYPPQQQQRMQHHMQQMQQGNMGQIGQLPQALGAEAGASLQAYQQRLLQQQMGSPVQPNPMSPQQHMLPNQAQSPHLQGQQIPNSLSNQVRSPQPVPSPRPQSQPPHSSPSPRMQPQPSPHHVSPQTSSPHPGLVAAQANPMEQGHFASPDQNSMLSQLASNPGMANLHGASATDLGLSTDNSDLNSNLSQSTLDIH
Readout Label: IC50

[[record]]
compound = "Cn1cc(-c2cccc(NC(=O)C(NCCc3ccc(C#N)cc3)c3ccccc3)n2)cn1 (single isomer, unassigned) [123 Isomer 2]"
observed_value = "13500 nM"

[[record]]
compound = "Cn1cc(-c2cnc(NC(=O)C(NCCc3ccc(C#N)cc3)c3ccccc3)cc2F)cn1 (single isomer, unassigned) [74 Isomer 2]"
observed_value = "5 nM"

[[record]]
compound = "N#Cc1ccc(CCNC(C(=O)Nc2ccc(-c3cn[nH]c3)cn2)c2ccccc2)cc1 (single isomer, unassigned) [7 Isomer 2]"
observed_value = "13.4 nM"

[[record]]
compound = "CC(CNC(C(=O)Nc1ccc(-c2cnn(C)c2)cn1)c1ccccc1)c1ccc(C#N)c(F)c1 (single isomer, unassigned) [91 Isomer 2]"
observed_value = "0.75 nM"

[[record]]
compound = "C[C@H](CNC(C(=O)Nc1ccc(-c2cnn(CC(=O)N(C)C)c2)cn1)c1ccccc1)c1ccc(C#N)cc1 (single isomer, unassigned) [84 Isomer 2]"
observed_value = "2.15 nM"

[[record]]
compound = "N#Cc1ccc(CCNC(C(=O)Nc2ccc(-c3ccccc3)cn2)c2ccccc2)cc1 (single isomer, unassigned) [34 Isomer 1]"
observed_value = "7250 nM"

[[record]]
compound = "C[C@H](CNC(C(=O)Nc1ccc(-c2cnn(C)c(=O)c2)cn1)c1ccccc1)c1ccc(C#N)cc1 (single isomer, unassigned) [139 Isomer 1]"
observed_value = "< 3.24 nM"

[[record]]
compound = "Cc1cnn(-c2ccc(NC(=O)C(NCC(C)c3ccc(C#N)cc3)c3ccccc3)nc2)c1 (single isomer, unassigned) [62 Isomer 3]"
observed_value = "618 nM"

[[record]]
compound = "Cn1cc(-c2cccc(NC(=O)C(NCCc3ccc(C#N)cc3)c3ccccc3)n2)cn1 (single isomer, unassigned) [123 Isomer 1]"
observed_value = "2020 nM"

[[record]]
compound = "Cc1ccc(C(C)CNC(C(=O)Nc2ccc(-c3cnn(C)c3)cn2)c2ccccc2)cn1 (single isomer, unassigned) [143 Isomer 2]"
observed_value = "< 3.24 nM"

[[record]]
compound = "Cn1cc(-c2cnc(NC(=O)C(NCCc3ccc(C#N)cc3)c3ccccc3)c(F)c2)cn1 (single isomer, unassigned) [75 Isomer 2]"
observed_value = "387 nM"

[[record]]
compound = "Cn1cc(-c2ccc(NC(=O)C(NCCc3ccc(C#N)cc3)c3ccccc3)c(Cl)c2)cn1 (single isomer, unassigned) [26 Isomer 1]"
observed_value = "3 nM"


----------
Listed here: molecules with reported IC50 for p300 HAT domain (residues 1287-1666) (Homo sapiens (Human)).
Readout Label: IC50

[[record]]
molecule = "Cc1cnc(-c2ccc(NC(=O)[C@@H](NCCc3ccc(Cl)cc3)c3ccccc3)cc2)[nH]1 (single isomer, unassigned) [9 Isomer 1]"
observed_value = "> 5 µM"

[[record]]
molecule = "Cn1cc(-c2ccc(NC(=O)C(NCCc3ccc(C#N)cc3)c3ccc(Cl)cc3)nc2)cn1 (single isomer, unassigned) [67 Isomer 2]"
observed_value = "0.216 µM"

[[record]]
molecule = "Cn1cc(-c2ccc(NC(=O)C(NCCc3ccc(C#N)cc3)c3cccc(C(F)(F)F)c3)nc2)cn1 (single isomer, unassigned) [117 Isomer 1]"
observed_value = "> 2 µM"

